- Assayed System: CXCR4 (Homo sapiens)
- Sequence (P61073 whole entry): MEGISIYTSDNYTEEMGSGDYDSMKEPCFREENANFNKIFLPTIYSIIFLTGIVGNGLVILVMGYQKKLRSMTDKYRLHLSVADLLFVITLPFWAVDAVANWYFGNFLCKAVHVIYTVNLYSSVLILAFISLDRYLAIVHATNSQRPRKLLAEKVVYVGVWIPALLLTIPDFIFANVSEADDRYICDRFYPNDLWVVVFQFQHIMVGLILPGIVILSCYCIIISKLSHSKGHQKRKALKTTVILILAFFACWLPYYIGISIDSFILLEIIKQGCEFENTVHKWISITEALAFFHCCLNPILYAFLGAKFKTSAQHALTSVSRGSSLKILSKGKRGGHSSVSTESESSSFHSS
- Assay Info: FLIPR Tetra calcium mobilization assay
- Format: cell-based
- Assay Conditions: Human CD4+ T-Cells; CXCL12 added; FLIPR Calcium 4 assay kit
- Protocol: FLIPR Tetra Calcium Mobilization Assay The FLIPR Tetra calcium mobilization assay was performed by HD Bioscience. Briefly, The Molecular Devices, Fluorescent Imaging Plate Reader (FLIPR) Tetra was used in this assay. Excitation was achieved through unique placement of LED's within the instrument and emission captured by a CCD camera (EMCCD camera for FI and ICCD camera for luminescence). The homogeneous FLIPR Calcium 4 assay kit from Molecular Devices was used as the fluorescence reagent. […]
Measured Property: IC50 (nM)

Recorded IC50, per entry:
1. CCN(Cc1cc(N2CCN(C)CC2)nc(C)n1)[C@@H](C)c1ccccn1 | 0.18
2. Cc1nc(CN(CCCCN)c2cccc3cccnc23)cc(N2CCN(C)CC2)n1 | 0.21

(P) Cc1nc(CN(C)c2cccc3cccnc23)cc(N2CCC(N(C)C)CC2)n1
(Q) Cc1nc(CN(C)c2ccc(C#N)c3cccnc23)cc(N2CCN(C)CC2)n1
(R) Cc1nc(CN(C)c2cccc3cccnc23)cc(N2CCN(C)CC2)n1 [Compound D2]
Prompt: // ascending sort on recorded IC50 Submit the labels in the order that the ranking request calls for.
Completion: R, P, Q
(R: 0.24 nM, P: 2.4 nM, Q: 96 nM)

Data provenance: patent US11396501B2
